Each recorded value in this set is attributed to PubChem BioAssay (NCATS).

System: PA-1
Assay: Primary qHTS to identify gynecologic anti-cancer compounds using libraries of approved drugs and bioactive compounds (AID 1345084); also: nearly all actives have a fitted effect of over 55% in size
Details: Gynecologic cancer cell panel viability, ATPlite luminescence, 48 h; series mostly up to 57.5 µM
Description: National Center for Advancing Translational Sciences [NCATS] Assay Overview: Chemotherapeutic drug responses vary from cancer to cancer and from patient to patient. […] ATPlite is a luminescence based assay reliant on the conversion of a luciferase substrate to light in the presence of ATP. As a cytotoxic compound will suppress growth and decrease the number of cells, the concentration of ATP will decrease, and less light signal will be detected in the well. […]
Records with an inconclusive call do not appear. Active and inactive are the calls of the source. Calls follow the shape of the dose curve; as a rule, active = well fitted cell-killing curve with a large enough effect; inconclusive = small, poorly fitted or top-dose-only effect, or effect the other way; inactive = flat fitted curve, though single readings scatter.
Outcome codes: 1 (yes) = active, 0 (no) = inactive

>  <molecule>
Cc1cc(-c2ncc(-c3cccnc3)cc2/C=C/c2ccccc2)cnc1-c1cccnc1

>  <class-name>
0 (no)

$$$$
>  <molecule>
Cc1nc(N2CCN(C(=O)c3ccco3)CC2)c2c3c(sc2n1)CCCC3

>  <class-name>
0 (no)

$$$$
>  <molecule>
CCc1c(Cl)c(O)c(Cl)c(O)c1C(=O)O[C@H]1[C@H](O)[C@H](OC)[C@H](OC/C2=C\C=C\C[C@H](O)/C(C)=C\[C@H](CC)[C@@H](O[C@@H]3OC(C)(C)[C@@H](OC(=O)C(C)C)[C@H](O)[C@@H]3O)/C(C)=C/C(C)=C/C[C@@H]([C@@H](C)O)OC2=O)O[C@@H]1C

>  <class-name>
0 (no)

$$$$
>  <molecule>
O=C(NCCN1CCC(n2c(=O)[nH]c3ccccc32)CC1)c1cc2cc(F)ccc2[nH]1

>  <class-name>
0 (no)

$$$$
>  <molecule>
Cc1cc(C)c(S(=O)(=O)n2cc(C)cc2C)c(C)c1

>  <class-name>
0 (no)

$$$$
>  <molecule>
C=C1/C(=C/C=C2\CCC[C@@]3(C)C2CCC3[C@H](C)/C=C/[C@@H](O)C2CC2)C[C@@H](O)C[C@@H]1O (some centres not stated)

>  <class-name>
0 (no)

$$$$
>  <molecule>
C/C1=C\CCC2=CC(OC2=O)C(C)(C)/C=C/C1=O (configuration not stated)

>  <class-name>
1 (yes)

$$$$
>  <molecule>
O=C(Nc1nc2ccc([N+](=O)[O-])cc2s1)C1CCCCC1

>  <class-name>
0 (no)

$$$$
>  <molecule>
C=CC(=O)N1CCC[C@@H](n2nc(-c3cccc(C(=O)Nc4ccc(C(C)C)c(C)c4)c3)c3c(N)ncnc32)C1

>  <class-name>
0 (no)

$$$$
>  <molecule>
CC(C)c1ccc(NC(=O)Cn2cnc3c2c(=O)n(C)c(=O)n3C)cc1

>  <class-name>
0 (no)

$$$$
>  <molecule>
CC(C)(Cc1ccccc1)NCC(O)c1ccc(O)c(NS(C)(=O)=O)c1 (configuration not stated)

>  <class-name>
0 (no)

$$$$
>  <molecule>
OC(CC1c2ccccc2-c2cncn21)C1CCCCC1 (configuration not stated)

>  <class-name>
0 (no)

$$$$
>  <molecule>
COc1cc2ncnc(Nc3cccc(I)c3)c2cc1OC

>  <class-name>
0 (no)

$$$$
>  <molecule>
Nc1nc2c(ncn2C2OC3COP(=O)(O)OC3C2O)c(=O)[nH]1 (configuration not stated)

>  <class-name>
0 (no)

$$$$
>  <molecule>
C1=C/COCc2cc(ccc2OCCN2CCCC2)Nc2nccc(n2)-c2cccc(c2)COC/1

>  <class-name>
1 (yes)

$$$$
>  <molecule>
CC(C)=CCc1cc2c(cc1O)OC[C@H]1c3ccc(O)cc3O[C@@H]21

>  <class-name>
0 (no)

$$$$
>  <molecule>
COc1cccc(CN(C(=O)CC(C)(C)C)[C@H]2C[C@H](C(=O)N3CCNCC3)N(Cc3ccc4c(c3)OCO4)C2)c1

>  <class-name>
0 (no)

$$$$
>  <molecule>
CN(C)C(CCOc1cccc2ccccc12)c1ccccc1 (configuration not stated)

>  <class-name>
0 (no)

$$$$
>  <molecule>
COc1cc(NC(=O)c2cccc(-n3cc(NC(=O)Nc4cccc(C)c4)cn3)c2)cc(OC)c1OC

>  <class-name>
0 (no)

$$$$
>  <molecule>
Cc1ccccc1C(C(=O)NC1CCCCC1)N(C(=O)Cn1cnc2ccccc21)c1cccc(F)c1 (configuration not stated)

>  <class-name>
0 (no)

$$$$
>  <molecule>
CC(F)(F)CN1CCOc2c(nn(-c3ccccc3Cl)c2-c2ccc(Cl)cc2)C1=O

>  <class-name>
0 (no)

$$$$
>  <molecule>
NCC(CNc1nc(Nc2cccc(NC(=O)N3CCCC3)c2)ncc1I)C(=O)c1cccs1 (configuration not stated)

>  <class-name>
0 (no)

$$$$
